Could you please report measured apparent KD of MS2 coat protein for the items listed next?
tested on: MS2 coat protein; assay: apparent KD of MS2 coat protein; designed switch direction (-1 OFF switch, 1 ON switch): 1; higher = weaker reporter binding; conditions: Eterna round: R95; input ligand: none
Units required after the number.

Give apparent KD of MS2 coat protein; test system MS2 coat protein; sequence GUAAAACAUGAGGAUCACCCAUGUCAACAAAGUCGAGGAUAUGGGCAAAUAAAAUAAGAACCAGAAGGCGAAUAAU [salish99_SS1_r3_011] (puzzle: Same State 1)
325 nM

Give apparent KD of MS2 coat protein; test system MS2 coat protein; sequence ACACAGCUGGGUGAGGAUAUCGGUGGUAAAACAUGAGGAUCACCCAUGUCCGAAGCUCGGACUUCCGAGAAGGCGCCCGGCUGCA [Areronanma] (puzzle: Same State 2)
151 nM

Give apparent KD of MS2 coat protein; test system MS2 coat protein; sequence GGAGCCGGCACUGAGGAUAUUCAUAUUAAAACAUGAGGAUCACCCAUGUAGGCCAGAAGGCCUUGGGAGAAGGCAGGCCGGCCCG [Bibimoar - 1] (puzzle: Same State 2)
276 nM
